assayInfo: Plasma protein binding
Format: in vitro ADME
conditionsUsed: mouse, read-out: plasma protein binding (PPB) (converted)
experimentalReadout: fraction unbound
API doc: respond with a numeric literal and nothing else, no unit.

Endpoint output: fraction unbound of Cc1nc(NC(=O)N2CCC[C@H]2C(N)=O)sc1-c1ccnc(C(C)(C)C(F)(F)F)c1 . Value? 0.088

The measurements presented in this section are drawn from patent US10434092B2.
